All figures here come from PubChem BioAssay (NCATS).

# assay_method_text: Quantitative High-Throughput drug screen in 47 multiple myeloma cell lines against the NCATS MIPE library collection: KMS27_JCRB cell viability assay (AID 1918970); also: nearly all actives have a fitted effect of over 30% in size
# applied_conditions: KMS27 myeloma cells, CellTiter-Glo ATP viability, 48 h; series mostly up to 45.8 µM
Results filed as inconclusive are left out. Active and inactive are the calls of the source. Calls follow the shape of the dose curve; as a rule, active = well fitted cell-killing curve with a large enough effect; inconclusive = small, poorly fitted or top-dose-only effect, or effect the other way; inactive = no such curve, though single readings can be large or run the other way.
Classes used: active, inactive

{"compound": "COc1cccc2nc(-c3cccs3)nc(NN3C(=O)C=C(C)C3=O)c12", "classification": "active"}
{"compound": "COc1cc(OC2CCN(C)CC2)ccc1Nc1ncc2c(n1)n(C1CCCC1)c(=O)n2C", "classification": "active"}
{"compound": "CC(C)CC(=O)Nc1n[nH]c2c1CN(C(=O)C1CCN(C)CC1)C2(C)C", "classification": "active"}
{"compound": "Cc1cc(Nc2cc(N3CCN(C)CC3)nc(Sc3ccc(NC(=O)C4CC4)cc3)n2)n[nH]1", "classification": "active"}
{"compound": "CNC(=O)c1c(F)cccc1Nc1nc(Nc2cc3c(cc2OC)CCN3C(=O)CN(C)C)nc2[nH]ccc12", "classification": "inactive"}
{"compound": "COc1cccc2c(NCc3ccccc3)nc(-n3c(N)nc4ccccc43)nc12", "classification": "active"}
{"compound": "C=CC(=O)Nc1cccc(Oc2nc(Nc3ccc(N4CCN(C)CC4)cc3OC)ncc2Cl)c1", "classification": "active"}
{"compound": "Nc1nc(Nc2ccc(S(N)(=O)=O)cc2)nn1C(=O)c1c(F)cccc1F", "classification": "active"}
{"compound": "COc1ccc(-c2cc3c(C)nc(N)nc3n(C3CCC(OCCO)CC3)c2=O)cn1 (stereo not given)", "classification": "active"}
{"compound": "C1Cc2[nH]nc(-c3nn[nH]n3)c2C1", "classification": "inactive"}
{"compound": "Cc1ccc(CN2CCNCC2)cc1NC(=O)CNc1ccc(F)c(F)c1", "classification": "inactive"}
{"compound": "Cc1nc2ccc(CN(C)c3ccc(C(=O)N[C@@H](CCC(=O)O)C(=O)O)s3)cc2c(=O)[nH]1", "classification": "active"}
{"compound": "c1cc(-c2cnn3cc(-c4ccc(OCCN5CCCCC5)cc4)cnc23)ccn1", "classification": "inactive"}
{"compound": "Cc1cc(Nc2ncnc3ccc(-c4ccc(CNCCS(C)(=O)=O)o4)cc23)ccc1Oc1ccn2ncnc2c1", "classification": "active"}
{"compound": "N#Cc1c(O)c2c(-c3ccc(-c4ccccc4O)cc3)csc2[nH]c1=O", "classification": "inactive"}
{"compound": "CC(C)(O)CCc1ccc(OCc2cc(-c3cccc(OC(F)F)c3)c3ncccc3c2)cc1", "classification": "inactive"}
{"compound": "CC1(O)CC(c2nc(-c3ccc4ccc(-c5ccccc5)nc4c3)c3c(N)nccn23)C1 (stereo not given)", "classification": "active"}
{"compound": "O=C(O)c1ccc2c(c1)nc(Nc1cccc(Cl)c1)c1ccncc12", "classification": "active"}
{"compound": "OCCCNc1cc(-c2ccnc(Nc3cccc(Cl)c3)n2)ccn1", "classification": "active"}
{"compound": "CN(C1CCc2c(c3ccccc3n2CC(=O)O)C1)S(=O)(=O)c1ccc(F)cc1 (stereo not given)", "classification": "active"}

###

# assay_method_text: qHTS profiling of the MIPE4 collection as inhibitors of Plasmodium falciparum (3D7) proliferation (AID 743344);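 also: scaled between DMSO vehicle wells and 0.29 µM artemisinin as full inhibition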
# applied_conditions: P. falciparum 3D7 in erythrocytes, SYBR Green DNA fluorescence, 72 h; at 28.5 µM (top of the series) unless noted
# Procedure: Plasmodium falciparum is a virulent malarial parasite that kills 1-2 million people worldwide each year. […] Because mature erythrocytes lack DNA, only Plasmodium-derived DNA is detected. The SYBR Green viability assay was adapted from a method described previously (Plouffe et al., 2008). […] The following morning, fluorescence intensity at 485(14) nm excitation and 535(25) nm emission wavelengths was measured on an EnVision (Perkin Elmer) plate reader. […]
parasite growth, % of DMSO control values, listed per item

{"compound": "COc1cc(C)c(Sc2cnc(NC(=O)c3ccc(CNC(C)C(C)C)cc3)s2)cc1C(=O)N1CCN(C(C)=O)CC1 (centres undefined)", "parasite growth, % of DMSO control, %": 16.2}
{"compound": "CCC(=C(c1ccccc1)c1ccc(OCCN(C)C)cc1)c1ccccc1", "parasite growth, % of DMSO control, %": 53.1}
{"compound": "CC(=O)SC[C@@H](C)C(=O)N1CCC[C@H]1C(=O)N[C@@H](Cc1ccccc1)C(=O)O", "parasite growth, % of DMSO control, %": 100}
{"compound": "C=CC(=O)Nc1cc2c(Nc3ccc(F)c(Cl)c3)ncnc2cc1C#CC(C)(C)N1CCN(C)CC1", "parasite growth, % of DMSO control, %": 9.4}
{"compound": "CN(c1ncccc1CNc1nc(Nc2ccc3c(c2)CC(=O)N3)ncc1C(F)(F)F)S(C)(=O)=O", "parasite growth, % of DMSO control, %": 12.5}
{"compound": "C1=CCOCc2cc(ccc2OCCN2CCCC2)Nc2nccc(n2)-c2cccc(c2)OCC1", "parasite growth, % of DMSO control, %": 5.07}
{"compound": "CC(=O)c1c(C)c2cnc(Nc3ccc(N4CCNCC4)cn3)nc2n(C2CCCC2)c1=O", "parasite growth, % of DMSO control, %": 5.54}
{"compound": "CNc1nccc(-c2cccnc2Oc2cc(C(=O)Nc3cccc(C(F)(F)F)c3)ccc2C)n1", "parasite growth, % of DMSO control, %": 6.2}
{"compound": "Cc1ccc(C(N)=O)cc1Nc1nccc(-c2cn(C(C)C)c3cnccc23)n1", "parasite growth, % of DMSO control, %": 5.53}
{"compound": "O=C(O)C1(Cc2cccc(Nc3nccs3)n2)CCC(Oc2cccc(Cl)c2F)CC1 (centres undefined)", "parasite growth, % of DMSO control, %": 63.9}
{"compound": "CC1(C)CCC(c2ccc(Cl)cc2)=C(CN2CCN(c3ccc(C(=O)NS(=O)(=O)c4ccc(N[C@H](CCN5CCOCC5)CSc5ccccc5)c(S(=O)(=O)C(F)(F)F)c4)cc3)CC2)C1", "parasite growth, % of DMSO control, %": 17.1}
{"compound": "CNC(=O)c1ccccc1Nc1nc(Nc2ccc(N3CCOCC3)cc2OC)ncc1Cl", "parasite growth, % of DMSO control, %": 10.8}
{"compound": "CN1CCN(c2cc(C(=O)Nc3ccc4c(c3)-c3c(c(C(N)=O)nn3-c3ccc(F)cc3)CC4)c(Cl)cn2)CC1", "parasite growth, % of DMSO control, %": 4.93}
{"compound": "CNC(=O)c1cc(Oc2ccc(NC(=O)Nc3cc(C(C)(C)C)nn3-c3ccc4ncccc4c3)c(F)c2)ccn1", "parasite growth, % of DMSO control, %": 5.7}
{"compound": "O=C(NCCS(=O)(=O)c1ccc(C(F)(F)F)cn1)c1ccc(Cl)cc1", "parasite growth, % of DMSO control, %": 127}
{"compound": "CN(C)c1nc(Cc2ccc(NC(=O)c3ccc4ccccc4c3)cc2)nc(Cl)c1CC(=O)O", "parasite growth, % of DMSO control, %": 59.8}
{"compound": "Cc1cn(-c2cc(NC(=O)c3ccc(C)c(Nc4nccc(-c5cccnc5)n4)c3)cc(C(F)(F)F)c2)cn1", "parasite growth, % of DMSO control, %": 6.31}
{"compound": "CNC(=O)c1ccc(-c2cnc3ncc(Cc4ccc5ncccc5c4)n3n2)cc1F", "parasite growth, % of DMSO control, %": 19.3}
{"compound": "OCCCNc1cc(-c2ccnc(Nc3cccc(Cl)c3)n2)ccn1", "parasite growth, % of DMSO control, %": 5.7}
